Data provenance is patent US20240018502A1.

For each entry below, report its EC50 (nM), cleavage of purified hC3 in vitro value.
Target Or Test System: human complement protein C3 (human) (UniProt P01024)
Sequence (P01024 23-667, chain 1 of 2): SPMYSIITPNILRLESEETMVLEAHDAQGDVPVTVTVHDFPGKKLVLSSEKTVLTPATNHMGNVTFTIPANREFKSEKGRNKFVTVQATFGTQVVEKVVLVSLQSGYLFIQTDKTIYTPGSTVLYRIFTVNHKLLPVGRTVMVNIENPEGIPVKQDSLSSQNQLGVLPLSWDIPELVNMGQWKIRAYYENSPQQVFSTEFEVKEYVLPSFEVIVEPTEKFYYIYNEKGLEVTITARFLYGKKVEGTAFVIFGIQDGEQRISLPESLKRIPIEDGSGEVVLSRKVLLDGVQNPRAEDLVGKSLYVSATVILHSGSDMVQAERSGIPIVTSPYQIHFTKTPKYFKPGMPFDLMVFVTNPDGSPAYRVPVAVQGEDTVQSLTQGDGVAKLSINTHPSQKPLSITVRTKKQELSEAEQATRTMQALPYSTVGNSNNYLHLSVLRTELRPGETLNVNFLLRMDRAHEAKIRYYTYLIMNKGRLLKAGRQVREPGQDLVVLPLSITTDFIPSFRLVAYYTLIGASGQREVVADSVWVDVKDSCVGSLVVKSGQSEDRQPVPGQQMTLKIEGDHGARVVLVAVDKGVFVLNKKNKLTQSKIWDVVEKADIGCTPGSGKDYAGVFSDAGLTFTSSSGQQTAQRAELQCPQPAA
Sequence (P01024 672-1663, chain 2 of 2): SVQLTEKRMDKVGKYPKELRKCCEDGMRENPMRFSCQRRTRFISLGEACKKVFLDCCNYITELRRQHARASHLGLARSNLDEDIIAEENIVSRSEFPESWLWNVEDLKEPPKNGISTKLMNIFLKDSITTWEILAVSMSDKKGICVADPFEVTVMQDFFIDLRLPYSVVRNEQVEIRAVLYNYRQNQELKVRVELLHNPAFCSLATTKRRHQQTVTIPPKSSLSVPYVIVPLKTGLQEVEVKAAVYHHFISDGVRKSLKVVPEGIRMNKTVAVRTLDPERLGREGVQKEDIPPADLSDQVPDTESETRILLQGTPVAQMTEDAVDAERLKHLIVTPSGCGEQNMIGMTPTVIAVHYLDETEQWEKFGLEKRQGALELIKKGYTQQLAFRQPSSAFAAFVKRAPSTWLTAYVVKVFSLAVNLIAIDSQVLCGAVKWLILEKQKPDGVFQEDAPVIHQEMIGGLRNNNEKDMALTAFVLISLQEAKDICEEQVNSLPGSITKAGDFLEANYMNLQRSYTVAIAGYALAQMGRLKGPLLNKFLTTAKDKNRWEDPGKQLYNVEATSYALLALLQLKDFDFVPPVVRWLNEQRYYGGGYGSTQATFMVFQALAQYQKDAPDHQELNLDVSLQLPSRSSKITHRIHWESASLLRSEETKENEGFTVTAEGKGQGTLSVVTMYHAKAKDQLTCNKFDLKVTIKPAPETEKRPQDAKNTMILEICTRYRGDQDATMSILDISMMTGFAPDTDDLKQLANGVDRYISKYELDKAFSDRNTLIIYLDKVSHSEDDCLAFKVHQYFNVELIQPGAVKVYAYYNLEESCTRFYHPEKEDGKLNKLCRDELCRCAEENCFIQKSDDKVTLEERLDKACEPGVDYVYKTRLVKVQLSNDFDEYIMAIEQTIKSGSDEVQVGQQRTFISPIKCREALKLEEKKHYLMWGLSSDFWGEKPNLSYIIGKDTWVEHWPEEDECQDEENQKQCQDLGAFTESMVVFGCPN
Assay Name: cell-based or functional assay
Give bare numbers, in nM.

| Binder | Unit Abbrev | Reported |
| --- | --- | --- |
| Q38H/I41S/D60bF/F60eV/F97D/ins97aV/T98P/F99L/C122S/G151N/Q175L/Q192A (enzyme) VVGGTDADEGEWPWQVSLHALGHGHSCGASLISPNWLVSAAHCYIDFRGVRYSDPTQWTAFLGLHDQSQRSAPGVQERRLKRIISHPFFNDDVPLDYDIALLELEKPAEYSSMVRPISLPDASHVFPAGKAIWVTGWGHTQYGGTNALILQKGEIRVINQTTCENLLPQLITPRMMCVGFLSGGVDSCAGDSGGPLSSVEADGRIFQAGVVSWGDGCAQRNKPGVYTRLPLFRDWIKENTGV | nM | 1.57 |

// moving on: another record for EC50 (nM), cleavage of purified hC3 in vitro
Input line: Which measured EC50 (nM), cleavage of purified hC3 in vitro value corresponds to Q38H/I41A/D60bV/F60eA/Y60gW/F97T/ins97aE/T98G/F99L/C122S/Q175L/Q192V (enzyme) VVGGTDADEGEWPWQVSLHALGHGHACGASLISPNWLVSAAHCYIDVRGARWSDPTQWTAFLGLHDQSQRSAPGVQERRLKRIISHPFFNDTEGLDYDIALLELEKPAEYSSMVRPISLPDASHVFPAGKAIWVTGWGHTQYGGTGALILQKGEIRVINQTTCENLLPQLITPRMMCVGFLSGGVDSCVGDSGGPLSSVEADGRIFQAGVVSWGDGCAQRNKPGVYTRLPLFRDWIKENTGV ?
Output line: 1.57
